- Assay Target: T1, His-NogoR fusion protein (human, UniProt Q9BZR6 27-447)
- T1 construct: Low-glycosylated fraction of about 80 kDa from CHO-K1 cells; also called soluble His-NogoR; NgR-HIS; not shown: Myc/His tag of vector pcDNA4/MycHIS A
- T1 sequence (looked up): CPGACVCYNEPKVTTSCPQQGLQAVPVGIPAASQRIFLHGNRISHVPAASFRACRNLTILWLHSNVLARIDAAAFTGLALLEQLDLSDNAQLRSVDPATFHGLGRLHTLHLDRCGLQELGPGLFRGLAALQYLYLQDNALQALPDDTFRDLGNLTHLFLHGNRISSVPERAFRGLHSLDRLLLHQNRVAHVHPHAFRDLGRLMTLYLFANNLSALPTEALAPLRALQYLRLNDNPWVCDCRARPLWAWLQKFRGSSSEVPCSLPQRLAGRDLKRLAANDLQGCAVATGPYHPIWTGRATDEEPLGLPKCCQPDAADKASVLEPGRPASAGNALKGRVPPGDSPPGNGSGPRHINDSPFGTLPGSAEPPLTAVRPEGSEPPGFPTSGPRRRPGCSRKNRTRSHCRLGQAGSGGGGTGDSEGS
- Measurement Notes: competition of AP-Nogo66 (0.1 nM) binding to coated His-NogoR
No end group written: not given here.
Observed Property: IC50

Query: Which IC50 reading was recorded for the binder QNITARIGEPLVLKCKGAPKKPPQRLEWKLN (also: biotin label in some assays, position not given here, also called Nterm 31; Nterm31) [NtermR31] ?
Result: 50 nM
